- target.under.test: rNK1R (Rattus norvegicus, UniProt P14600)
- Construct: As a source of the receptor proteins, homogenates obtained from rat brains; from tissue; host or cells: rat brain homogenate
- Sequence (P14600 whole entry): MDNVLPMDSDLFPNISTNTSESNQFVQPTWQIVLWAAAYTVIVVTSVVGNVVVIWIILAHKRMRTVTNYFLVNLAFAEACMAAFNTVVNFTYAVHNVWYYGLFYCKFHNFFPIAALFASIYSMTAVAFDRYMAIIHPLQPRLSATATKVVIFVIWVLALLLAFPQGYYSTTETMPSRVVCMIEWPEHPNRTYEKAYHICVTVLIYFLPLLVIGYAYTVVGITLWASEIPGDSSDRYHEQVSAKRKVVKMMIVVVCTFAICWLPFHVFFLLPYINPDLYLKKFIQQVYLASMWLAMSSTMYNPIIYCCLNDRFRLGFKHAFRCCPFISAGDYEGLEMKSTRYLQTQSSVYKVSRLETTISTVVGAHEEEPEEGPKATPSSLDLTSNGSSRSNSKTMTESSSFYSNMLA
- measurement.description: Competitive radioligand binding assay, rat brain homogenates, [3H]-(Sar9,Met(O2)11)-Substance P
- protocol.conditions: mean of three independent experiments in duplicate unless stated
measured.endpoint: IC50 (Mean ± SD) rNK1R

>>> df
                      smiles_representation  reported_measurement
0  CC(C)(C)OC(=O)NCCCCCC(=O)NCCCCCC(=O)N[C@@H](Cc1c[nH]c2ccccc12)C(=O)OCc1cc(C(F)(F)F)cc(C(F)(F)F)c1         submicromolar
1  CC(=O)NCCCCCC(=O)NCCCCCC(=O)N[C@@H](Cc1c[nH]c2ccccc12)C(=O)OCc1cc(C(F)(F)F)cc(C(F)(F)F)c1         submicromolar
2  NCCCCCC(=O)NCCCCCC(=O)N[C@@H](Cc1c[nH]c2ccccc12)C(=O)OCc1cc(C(F)(F)F)cc(C(F)(F)F)c1.O=C(O)C(F)(F)F         submicromolar
3  C[C@@H](NC(=O)OC(C)(C)C)C(=O)N[C@H](C)C(=O)N[C@@H](Cc1c[nH]c2ccccc12)C(=O)OCc1cc(C(F)(F)F)cc(C(F)(F)F)c1         submicromolar

---

- target.under.test: hNK1R (Homo sapiens)
- Construct: expressed in transfected cells; host or cells: CHO-K1 (hNK1-CHO), gift from Dr. Attila Keresztes and Dr. John M. Streicher
- Sequence (P25103 whole entry): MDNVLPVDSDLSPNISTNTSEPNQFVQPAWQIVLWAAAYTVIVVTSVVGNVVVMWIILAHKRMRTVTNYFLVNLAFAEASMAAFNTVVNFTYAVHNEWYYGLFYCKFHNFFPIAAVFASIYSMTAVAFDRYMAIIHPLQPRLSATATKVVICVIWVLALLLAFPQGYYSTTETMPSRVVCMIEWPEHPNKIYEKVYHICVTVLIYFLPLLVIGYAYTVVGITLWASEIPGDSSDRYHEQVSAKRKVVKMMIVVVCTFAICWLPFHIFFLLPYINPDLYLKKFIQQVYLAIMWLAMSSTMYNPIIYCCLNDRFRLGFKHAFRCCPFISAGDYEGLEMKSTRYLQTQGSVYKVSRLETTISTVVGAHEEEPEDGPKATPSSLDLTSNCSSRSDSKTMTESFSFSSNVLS
- measurement.description: Saturation binding assay of 177Lu-radioconjugates on CHO-NK1R cells
- protocol.conditions: CHO-NK1R cells, 60 min at 37 °C, aprepitant as blocker; read-out: Kd ± SD

compound	unit.string	Kd
O=C(O)CN1CCN(CC(=O)O)CCN(CC(=O)N[C@@H](Cc2c[nH]c3ccccc23)C(=O)OCc2cc(C(F)(F)F)cc(C(F)(F)F)c2)CCN(CC(=O)O)CC1 [[^177Lu]Lu-1d, metal not drawn]	nM	6.98

---

- target.under.test: rNK1R (Rattus norvegicus, UniProt P14600)
pIC50: −log10 of the molar value.
measured.endpoint: pIC50

>>> df
                      smiles_representation  measured_endpoint  value_relation_sign  reported_measurement
0  N[C@@H](Cc1c[nH]c2ccccc12)C(=O)OCc1cc(C(F)(F)F)cc(C(F)(F)F)c1.O=C(O)C(F)(F)F              pIC50                    <                  5.00
1  C[C@@H](NC(=O)OC(C)(C)C)C(=O)N[C@H](C)C(=O)N[C@@H](Cc1c[nH]c2ccccc12)C(=O)OCc1cc(C(F)(F)F)cc(C(F)(F)F)c1              pIC50                    =                  6.13
2  CC(=O)N[C@H](C)C(=O)N[C@H](C)C(=O)N[C@@H](Cc1c[nH]c2ccccc12)C(=O)OCc1cc(C(F)(F)F)cc(C(F)(F)F)c1              pIC50                    =                  5.94

---

pIC50: −log10 of the molar value.
Recorded pIC50 values (UniProt P14600) are given below.
measured.endpoint: pIC50

In [3]: df
Out[3]:
                      smiles_representation  measured_endpoint  reported_measurement
0  CC(C)(C)OC(=O)NCCCCCC(=O)N[C@@H](Cc1c[nH]c2ccccc12)C(=O)OCc1cc(C(F)(F)F)cc(C(F)(F)F)c1              pIC50                  5.78
1  CC(=O)N[C@H](C)C(=O)N[C@@H](Cc1c[nH]c2ccccc12)C(=O)OCc1cc(C(F)(F)F)cc(C(F)(F)F)c1              pIC50                  5.64
2  CC(=O)NCCCCCC(=O)NCCCCCC(=O)N[C@@H](Cc1c[nH]c2ccccc12)C(=O)OCc1cc(C(F)(F)F)cc(C(F)(F)F)c1              pIC50                  6.18
3  CC(=O)NCCCCCC(=O)N[C@@H](Cc1c[nH]c2ccccc12)C(=O)OCc1cc(C(F)(F)F)cc(C(F)(F)F)c1              pIC50                  5.71
4  C[C@@H](N)C(=O)N[C@H](C)C(=O)N[C@@H](Cc1c[nH]c2ccccc12)C(=O)OCc1cc(C(F)(F)F)cc(C(F)(F)F)c1              pIC50                  5.40
5  CC(C)(C)OC(=O)NCCCCCC(=O)NCCCCCC(=O)N[C@@H](Cc1c[nH]c2ccccc12)C(=O)OCc1cc(C(F)(F)F)cc(C(F)(F)F)c1              pIC50                  6.12

Data provenance: paper PMC8835841
